B1: CPEB3 Ribozyme (parent)
chain: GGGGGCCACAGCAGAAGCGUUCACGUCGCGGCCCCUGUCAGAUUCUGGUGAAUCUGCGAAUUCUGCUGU

variants of: B1; assay: self-cleavage, relative activity (ratio to wild type); higher = more cleavage; co-transcriptional
attribute.measured: self-cleavage
# respond with the number and nothing more

Illustrative cases are given below, each with its answer.
| entry.sequence | self-cleavage |
| --- | --- |
| CGGGGCCACAGCAGAAGCGUUCACGUCGCGGCCCCUGUCAGAUUCUUGUGAAUCUGCGAAUUCUGCUGU [G1C G47U] | 0.268 |
| GGGGGCCGCAGCAGAAGCGUUCACGUCGCGGCCCCUGUCAGAUUCUGAUGAAUCUGCGAAUUCUGCUGU [A8G G48A] | 0.939 |
| GGGGGCCACAGCAGAAGCGUUCACGUCGCGCCCCCUGUCAGAUUCUGGUGAAUCAGCGAAUUCUGCUGU [G31C U55A] | 0.188 |
| GGGGGCCACAGCAGAAGCGUUCACGUCGCGGCUCGUGUCAGAUUCUGGUGAAUCUGCGAAUUCUGCUGU [C33U C35G] | 0.396 |
| GGGGGCCACAGCAGAAGCGUUCACGUCGCGGCCCCUAUCAGAUUCUGGUGAAUCUGCGAAUUCUGCUGU [G37A] | 0.32 |
| GGGGGCCACAGCAGAAGCGUUCACGUCGCGGCCCCCGUCAGAUUCUGGUCAAUCUGCGAAUUCUGCUGU [U36C G50C] | 0.895 |
| GGGGGCCACAGCAGAAGCGUUCACGUCGCGUCCCCUGUCAGAAUCUGGUGAAUCUGCGAAUUCUGCUGU [G31U U43A] | 0.443 |
| GGGGGCCACAGCAGAAGCGUUCACGUCGCGGCCCCUGUCAAAUGCUGGUGAAUCUGCGAAUUCUGCUGU [G41A U44G] | 0.307 |

Item GGGGGCCACAACAGAAGCGUUCACGUCGCUGCCCCUGUCAGAUUCUGGUGAAUCUGCGAAUUCUGCUGU [G11A G30U] has what recorded self-cleavage?
0.32

Item GGGGGCCACAGCAGAAGCGUUCACGUCGCGGCCCCUGUCAGAGUCUGGUGAAUCUGCGAUUUCUGCUGU [U43G A60U] has what recorded self-cleavage?
0.419

Item GGGGGCCACAGCAGAAGCGUUCACGUCGCGGCCCCUGUCAGAUUCCGGUGAAUCUGCGAAAUCUGCUGU [U46C U61A] has what recorded self-cleavage?
0.95

Item GGGGGCCACAGCAGAAGCGUUCACGUCGCGGGCCCUGUCAGAUUCUGGUGAAUCUGCGAAUUCUGCUAU [C32G G68A] has what recorded self-cleavage?
0.808
